// provenance: BigSolDB 2.1

Conditions Used: in acetonitrile, 278.15 K
Measurement Type: solubility (mole fraction)
I'd appreciate a reply containing only the number, no unit.

Prompt: Find the measured solubility (mole fraction) of CO[C@@]1(NC(=O)Cc2cccs2)C(=O)N2C(C(=O)O)=C(COC(N)=O)CS[C@@H]21 and report it.
Completion: 0.000452

---

Conditions Used: in n-propanol, 298.15 K
Measurement Type: solubility (mole fraction)

Prompt: Find the measured solubility (mole fraction) of CO[C@@]1(NC(=O)Cc2cccs2)C(=O)N2C(C(=O)O)=C(COC(N)=O)CS[C@@H]21 and report it.
Completion: 0.000394

---

Conditions Used: in ethanol, 293.15 K
Measurement Type: solubility (mole fraction)
I'd appreciate a reply containing only the number, no unit.

Prompt: Find the measured solubility (mole fraction) of CO[C@@]1(NC(=O)Cc2cccs2)C(=O)N2C(C(=O)O)=C(COC(N)=O)CS[C@@H]21 and report it.
Completion: 0.000739

---

Conditions Used: in isopropanol, 303.15 K
Measurement Type: solubility (mole fraction)
I'd appreciate a reply containing only the number, no unit.

Prompt: Find the measured solubility (mole fraction) of CO[C@@]1(NC(=O)Cc2cccs2)C(=O)N2C(C(=O)O)=C(COC(N)=O)CS[C@@H]21 and report it.
Completion: 0.000243

---

Conditions Used: in methanol, 298.15 K
Measurement Type: solubility (mole fraction)
I'd appreciate a reply containing only the number, no unit.

Prompt: Find the measured solubility (mole fraction) of CO[C@@]1(NC(=O)Cc2cccs2)C(=O)N2C(C(=O)O)=C(COC(N)=O)CS[C@@H]21 and report it.
Completion: 0.011

---

Conditions Used: in n-propanol, 293.15 K
Measurement Type: solubility (mole fraction)
I'd appreciate a reply containing only the number, no unit.

Prompt: Find the measured solubility (mole fraction) of CO[C@@]1(NC(=O)Cc2cccs2)C(=O)N2C(C(=O)O)=C(COC(N)=O)CS[C@@H]21 and report it.
Completion: 0.000338

---

Conditions Used: in methanol, 288.15 K
Measurement Type: solubility (mole fraction)
I'd appreciate a reply containing only the number, no unit.

Prompt: Find the measured solubility (mole fraction) of CO[C@@]1(NC(=O)Cc2cccs2)C(=O)N2C(C(=O)O)=C(COC(N)=O)CS[C@@H]21 and report it.
Completion: 0.00772

---

Conditions Used: in acetonitrile, 308.15 K
Measurement Type: solubility (mole fraction)
I'd appreciate a reply containing only the number, no unit.

Prompt: Find the measured solubility (mole fraction) of CO[C@@]1(NC(=O)Cc2cccs2)C(=O)N2C(C(=O)O)=C(COC(N)=O)CS[C@@H]21 and report it.
Completion: 0.00076

---

Conditions Used: in isopropanol, 308.15 K
Measurement Type: solubility (mole fraction)
I'd appreciate a reply containing only the number, no unit.

Prompt: Find the measured solubility (mole fraction) of CO[C@@]1(NC(=O)Cc2cccs2)C(=O)N2C(C(=O)O)=C(COC(N)=O)CS[C@@H]21 and report it.
Completion: 0.000314

---

Conditions Used: in isopropanol, 298.15 K
Measurement Type: solubility (mole fraction)
I'd appreciate a reply containing only the number, no unit.

Prompt: Find the measured solubility (mole fraction) of CO[C@@]1(NC(=O)Cc2cccs2)C(=O)N2C(C(=O)O)=C(COC(N)=O)CS[C@@H]21 and report it.
Completion: 0.000186
